Percent Mortality values by entry
# Tested on: tobacco budworm (Heliothis virescens [Fabricius])
# assay protocol: surface-treated diet test against tobacco budworm
# Assay type: in vivo
# condition: 0.25 millimolar on the surface of the diet; second instar larvae; five-day exposure; compared to the total number of insects infested
Number only, in %; omit the unit.

Sample records with Percent Mortality:
- compound: "CN(C)C(=O)N1CCSC1c1ccc(CN2CCC(C(O)(c3ccc(OC(F)(F)F)cc3)c3ccc(OC(F)(F)F)cc3)CC2)cc1 (stereo not drawn) [Compound 73]"
  observed property: "Percent Mortality"
  data value: 100
- compound: "CC1(C)COC(c2ccc(CN3CCC(C(O)(c4ccc(OC(F)(F)F)cc4)c4ccc(OC(F)(F)F)cc4)CC3)cc2)OC1 [Compound 39]"
  observed property: "Percent Mortality"
  data value: 100

Next item in the queue.
Prompt: Can you share its Percent Mortality? I mean this compound: CC1(C)OC(c2ccc(C[N+]3([O-])CCC(C(O)(c4ccc(OC(F)(F)F)cc4)c4ccc(OC(F)(F)F)cc4)CC3)cc2)OC1(C)C (stereo not drawn) [Compound 126]
Response: 100

###

Percent Mortality values by entry
# System: tobacco budworm (Heliothis virescens [Fabricius])
# assay protocol: surface-treated diet test against tobacco budworm
# Assay type: in vivo
# condition: 0.25 millimolar on the surface of the diet; second instar larvae; five-day exposure; compared to the total number of insects infested
Number only, in %; omit the unit.

Sample records with Percent Mortality:
- compound: "CC(=O)N1CCSC1c1ccc(CN2CCC(C(O)(c3ccc(OC(F)(F)F)cc3)c3ccc(OC(F)(F)F)cc3)CC2)cc1 (stereo not shown) [Compound 71]"
  tested target: "tobacco budworm (Heliothis virescens [Fabricius])"
  Percent Mortality [%]: 33
- compound: "OC(c1ccc(OC(F)(F)F)cc1)(c1ccc(OC(F)(F)F)cc1)C1CCN(Cc2ccc(CC3OCCO3)cc2)CC1 [Compound 183]"
  tested target: "tobacco budworm (Heliothis virescens [Fabricius])"
  Percent Mortality [%]: 100
- compound: "OC(c1ccc(OC(F)(F)F)cc1)(c1ccc(OC(F)(F)F)cc1)C1CCN(Cc2ccc(C3OCCO3)c(Cl)c2)CC1 [Compound 171]"
  tested target: "tobacco budworm (Heliothis virescens [Fabricius])"
  Percent Mortality [%]: 100
- compound: "[O-][N+]1(Cc2ccc(C3OCC(CN4CCCC4)O3)cc2)CCC(C(O)(c2ccc(OC(F)(F)F)cc2)c2ccc(OC(F)(F)F)cc2)CC1 (stereo not shown) [Compound 110]"
  tested target: "tobacco budworm (Heliothis virescens [Fabricius])"
  Percent Mortality [%]: 100
- compound: "CN1CCOC1c1ccc(CN2CCC(C(O)(c3ccc(OC(F)(F)F)cc3)c3ccc(OC(F)(F)F)cc3)CC2)cc1 (stereo not shown) [Compound 90]"
  tested target: "tobacco budworm (Heliothis virescens [Fabricius])"
  Percent Mortality [%]: 100
- compound: "[O-][N+]1(Cc2ccc(C3O[C@H]4CCCC[C@H]4O3)cc2)CCC(C(O)(c2ccc(OC(F)(F)F)cc2)c2ccc(OC(F)(F)F)cc2)CC1 (stereo partly shown) [Compound 117]"
  tested target: "tobacco budworm (Heliothis virescens [Fabricius])"
  Percent Mortality [%]: 100
- compound: "[O-][N+]1(Cc2ccc(C3(Cc4ccccc4)OCCO3)cc2)CCC(C(O)(c2ccc(OC(F)(F)F)cc2)c2ccc(OC(F)(F)F)cc2)CC1 (stereo not shown) [Compound 65]"
  tested target: "tobacco budworm (Heliothis virescens [Fabricius])"
  Percent Mortality [%]: 67
- compound: "CC1COC(c2ccc(CN3CCC(C(O)(c4ccc(Cl)c(Cl)c4)c4ccc(Cl)c(Cl)c4)CC3)cc2)O1 (stereo not shown) [Compound 176]"
  tested target: "tobacco budworm (Heliothis virescens [Fabricius])"
  Percent Mortality [%]: 100
- compound: "OC(c1ccc(OC(F)(F)F)cc1)(c1ccc(OC(F)(F)F)cc1)C1CCN(Cc2ccc(OCC3OCCO3)cc2)CC1 [Compound 187]"
  tested target: "tobacco budworm (Heliothis virescens [Fabricius])"
  Percent Mortality [%]: 100
- compound: "[O-][N+]1(Cc2ccc(C3OCCCCO3)cc2)CCC(C(O)(c2ccc(OC(F)(F)F)cc2)c2ccc(OC(F)(F)F)cc2)CC1 (stereo not shown) [Compound 7]"
  tested target: "tobacco budworm (Heliothis virescens [Fabricius])"
  Percent Mortality [%]: 100

Prompt: Lab note: need Percent Mortality with tobacco budworm (Heliothis virescens [Fabricius]) for entry CC1COC(COc2ccc(C[N+]3([O-])CCC(C(O)(c4ccc(OC(F)(F)F)cc4)c4ccc(OC(F)(F)F)cc4)CC3)cc2)O1 (stereo not shown) [Compound 194] , please look it up.
Response: 100

Prompt: Lab note: need Percent Mortality with tobacco budworm (Heliothis virescens [Fabricius]) for entry [O-][N+]1(Cc2ccc(C3O[C@H]4CCC[C@H]4O3)cc2)CCC(C(O)(c2ccc(OC(F)(F)F)cc2)c2ccc(OC(F)(F)F)cc2)CC1 (stereo partly shown) [Compound 123] , please look it up.
Response: 100

Prompt: Lab note: need Percent Mortality with tobacco budworm (Heliothis virescens [Fabricius]) for entry CC1COC(COc2ccc(CN3CCC(C(O)(c4ccc(OC(F)(F)F)cc4)c4ccc(OC(F)(F)F)cc4)CC3)cc2)O1 (stereo not shown) [Compound 193] , please look it up.
Response: 100
